Below, each entry is listed alongside its reported MIC.
System: Dickeya chrysanthemi
assayMethodText: Antibacterial activity against Erwinia chrysanthemi EC3937 assessed as growth inhibition at 30 degC after 24 hrs by liquid broth dilution method
Assay type: functional
conditions: EC3937, 24 h
Number in µg/mL, nothing else.

Qu. // fetch MIC given entry CCCCCCCCCCCCOc1ccc(OC[C@H]2O[C@@H]3OC(C)(C)O[C@@H]3[C@H]3OC(C)(C)O[C@H]32)cc1
Ans. 62.5

Qu. Indicate the recorded MIC value for this compound: CCCCCCCCOCCCCOC[C@H]1O[C@@H]2OC(C)(C)O[C@@H]2[C@H]2OC(C)(C)O[C@H]21
Ans. 62.5

Qu. Tell me MIC reported for CCCCCCCCCCCCOCC#CCOC[C@H]1O[C@H](O)[C@H](O)[C@@H](O)[C@H]1O
Ans. 62.5
